- Experimental Target: Voltage-gated inwardly rectifying potassium channel KCNH2 (Homo sapiens) (UniProt Q12809)
- Sequence (Q12809 whole entry, looked up): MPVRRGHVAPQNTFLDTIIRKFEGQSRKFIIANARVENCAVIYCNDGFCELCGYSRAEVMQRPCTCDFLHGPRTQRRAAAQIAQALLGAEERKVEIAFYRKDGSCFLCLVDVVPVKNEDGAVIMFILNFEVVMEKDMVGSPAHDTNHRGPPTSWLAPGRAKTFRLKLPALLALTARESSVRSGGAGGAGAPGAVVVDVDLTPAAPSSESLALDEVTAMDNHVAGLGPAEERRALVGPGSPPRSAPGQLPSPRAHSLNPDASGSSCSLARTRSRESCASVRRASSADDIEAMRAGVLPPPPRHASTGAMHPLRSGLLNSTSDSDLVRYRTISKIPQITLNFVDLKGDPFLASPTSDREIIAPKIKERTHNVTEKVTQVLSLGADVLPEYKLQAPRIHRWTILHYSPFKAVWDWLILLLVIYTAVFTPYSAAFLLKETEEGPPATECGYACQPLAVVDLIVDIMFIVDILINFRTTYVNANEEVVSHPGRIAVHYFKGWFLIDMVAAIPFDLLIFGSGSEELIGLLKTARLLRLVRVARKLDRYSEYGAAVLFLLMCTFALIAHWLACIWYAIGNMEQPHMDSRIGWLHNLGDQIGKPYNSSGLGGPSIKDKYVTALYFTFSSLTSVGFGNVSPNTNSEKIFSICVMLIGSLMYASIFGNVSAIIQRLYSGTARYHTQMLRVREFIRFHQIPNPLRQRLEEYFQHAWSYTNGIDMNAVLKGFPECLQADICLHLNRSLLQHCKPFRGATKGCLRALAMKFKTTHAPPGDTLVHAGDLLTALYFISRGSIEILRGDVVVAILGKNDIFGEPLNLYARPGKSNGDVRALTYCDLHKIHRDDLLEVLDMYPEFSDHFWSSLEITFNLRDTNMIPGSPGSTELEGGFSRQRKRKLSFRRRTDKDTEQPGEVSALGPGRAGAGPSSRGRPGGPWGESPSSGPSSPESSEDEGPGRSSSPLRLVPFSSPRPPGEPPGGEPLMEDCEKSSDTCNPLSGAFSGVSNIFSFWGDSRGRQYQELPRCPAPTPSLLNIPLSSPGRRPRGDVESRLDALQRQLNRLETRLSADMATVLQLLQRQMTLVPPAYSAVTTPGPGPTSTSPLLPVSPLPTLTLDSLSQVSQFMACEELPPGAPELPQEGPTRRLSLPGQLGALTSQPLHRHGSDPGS
- Test Summary: qHTS Assay for Small Molecule Inhibitors of the Human hERG Channel Activity (AID 588834);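 note: lower thallium flux fluorescence means stronger hERG block; nearly all actives have a fitted effect of over 50% in size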
- Condition Notes: U2OS BacMam hERG, FluxOR thallium flux fluorescence; series mostly up to 46.1 µM
Records with an inconclusive call do not appear. Calls of active or inactive are those of the source. Calls come from the whole dose curve; as a rule, active = well fitted inhibition curve with a large enough effect; inconclusive = small, poorly fitted or top-dose-only effect; inactive = flat fitted curve, though single readings scatter.
Respond using exactly one of the listed classes: active, inactive

Examples from the recorded data:
In [3]: df
Out[3]:
                                   compound                       experimental_target     class
0  O=P1(N(CCCl)CCCl)NCCCO1 (stereo not given)  Voltage-gated inwardly rectifying potassium channel KCNH2 (Homo sapiens) (UniProt Q12809)  inactive
1  O=C1c2ccccc2C(=O)C1C(=O)C(c1ccccc1)c1ccccc1  Voltage-gated inwardly rectifying potassium channel KCNH2 (Homo sapiens) (UniProt Q12809)  inactive
2    COc1cccc([C@@]2(O)CCCC[C@@H]2CN(C)C)c1  Voltage-gated inwardly rectifying potassium channel KCNH2 (Homo sapiens) (UniProt Q12809)  inactive

What outcome does the record of this test show for CC(C)=CC1C(C(=O)OCN2C(=O)C3=C(CCCC3)C2=O)C1(C)C (stereo not given) ?
active

Also, CN1CCC(O)(c2ccc(F)cc2)C(C(=O)c2ccc(F)cc2)C1 (stereo not given) please.
active

Also, "C=CCN1C[C@H](C)N([C@H](c2ccc(C(=O)N(CC)CC)cc2)c2cccc(OC)c2)C[C@H]1C" please.
active

Also, "Nc1nc(N)nc(NC2CC2)n1" please.
inactive

Also, "C=C(C)[C@H]1CN[C@H](C(=O)O)[C@H]1CC(=O)O" please.
inactive

Also, "C[C@]12CC[C@@H]3c4ccc(OC(=O)N(CCCl)CCCl)cc4CC[C@H]3[C@@H]1CC[C@@H]2O" please.
inactive

Also, "COc1c2c(cc3c1OCO3)CCN(C)C2" please.
inactive

Also, NC1=NC(=O)C(c2ccccc2)O1 (stereo not given) please.
inactive

Also, "O=C1OC(c2ccc(O)c(S(=O)(=O)O)c2)(c2ccc(O)c(S(=O)(=O)O)c2)c2c(Br)c(Br)c(Br)c(Br)c21" please.
inactive

* * *

- Test Summary: qHTS of pediatric cancer cell lines to identify multiple opportunities for drug repurposing: Primary screen for DAOY cells (AID 1347090); note: nearly all actives have a fitted effect of over 55% in size
- Condition Notes: DAOY medulloblastoma viability, CellTiter-Glo luminescence, 48 h; series mostly up to 46 µM
Results filed as inconclusive are left out. Calls of active or inactive are those of the source. Calls come from the whole dose curve; as a rule, active = well fitted cell-killing curve with a large enough effect; inconclusive = small, poorly fitted or top-dose-only effect; inactive = flat fitted curve, though single readings scatter.
Respond using exactly one of the listed classes: True (active), False (inactive)

Examples from the recorded data:
>>> print(df.to_string())
                                   compound  class
0                     O=C(O)c1ccc(=O)[nH]c1  False
1  CCC1(c2ccccc2)C(=O)N(COC)C(=O)N(COC)C1=O  False
2                    C[C@H](N)C(=O)c1ccccc1  False
3      COP(=S)(OC)Oc1ccc(S(=O)(=O)N(C)C)cc1  False
4    COc1cccc([C@@]2(O)CCCC[C@@H]2CN(C)C)c1  False

What outcome does the record of this test show for "COc1cc(CCN)cc(OC)c1OC" ?
False

Also, "CCC1(CC)C(=O)C=CNC1=O" please.
False

Also, "Nc1nc(N)nc(NC2CC2)n1" please.
False

Also, CC(=O)NC1CCSC1=O (configuration not stated) please.
False

Also, "CCCCCCCCCC(=O)O[C@H]1CC[C@H]2[C@@H]3CCC4=CC(=O)CC[C@@H]4[C@H]3CC[C@]12C" please.
False

Also, "C[C@](O)(CS(=O)(=O)c1ccc(F)cc1)C(=O)Nc1ccc(C#N)c(C(F)(F)F)c1" please.
True

Also, "O=[N+]([O-])O[C@H]1CO[C@H]2[C@@H]1OC[C@H]2O[N+](=O)[O-]" please.
False

* * *

- Test Summary: qHTS of pediatric cancer cell lines to identify multiple opportunities for drug repurposing: Primary screen for Saos-2 cells (AID 1347097); note: nearly all actives have a fitted effect of over 40% in size
- Condition Notes: Saos-2 viability, CellTiter-Glo ATP luminescence, 48 h; series mostly up to 46 µM
- Procedure: Drug repurposing or repositioning has been offered as a strategy for drug development in oncology programs. This approach has special potential for childhood cancers and other rare or orphan diseases, where the expected return on new drug development has been a disincentive to pharmaceuticals. […] We employed a titration-based paradigm (quantitative high-throughput screening or qHTS), where all compounds were tested at multiple concentrations for their effect on cell viability. […]
Inconclusive results are not listed. Active and inactive are the calls of the source. Calls come from the whole dose curve; as a rule, active = well fitted cell-killing curve with a large enough effect; inconclusive = small, poorly fitted or top-dose-only effect; inactive = no such curve, though single readings can be large or run the other way.
Experimental Endpoint: outcome

Recorded outcome, per entry:
>>> print(df.to_string())
                                   compound  experimental_value
0  CC1(C)C(C=C(Cl)Cl)C1C(=O)OC(C#N)c1cccc(Oc2ccccc2)c1 (stereo unspecified)            inactive
1                       c1ccc(CN2CCNCC2)cc1            inactive
2               COP(=S)(OC)Oc1ccc(SC)c(C)c1            inactive
3                     CCN[C@@H](C)Cc1ccccc1            inactive
4  O=P1(N(CCCl)CCCl)NCCCO1 (stereo unspecified)            inactive

For the compound shown here, "O=C1OC(c2ccc(O)c(S(=O)(=O)O)c2)(c2ccc(O)c(S(=O)(=O)O)c2)c2c(Br)c(Br)c(Br)c(Br)c21" , give the reported outcome.
inactive

* * *

- Test Summary: Primary qHTS for small molecule stabilizers of the endoplasmic reticulum resident proteome: Secreted ER Calcium Modulated Protein (SERCaMP) assay (AID 1508630)
- Condition Notes: SH-SY5Y GLuc-SERCaMP (Gaussia luciferase released on ER calcium loss) secretion, thapsigargin, luminescence; series mostly up to 38.4 µM
Results filed as inconclusive are left out. Calls of active or inactive are those of the source. Calls come from the whole dose curve; as a rule, active = well fitted inhibition curve with a large enough effect; inconclusive = small, poorly fitted or top-dose-only effect; inactive = no such curve, though single readings can be large or run the other way.
Respond using exactly one of the listed classes: 1 (yes) = active, 0 (no) = inactive

Examples from the recorded data:
In [3]: df
Out[3]:
                                   molecule   class
0            CCN[C@H](C)Cc1cccc(C(F)(F)F)c1  0 (no)
1  C[C@]12CC[C@H]3[C@@H](CCC4=CC(=O)CC[C@@H]43)[C@@H]1CC[C@@H]2OC(=O)CCc1ccco1  0 (no)
2                O=C1c2ccccc2C(=O)c2ccccc21  0 (no)

What outcome does the record of this test show for CC(Cc1ccccc1)N(C)Cc1ccco1 (configuration not stated) ?
0 (no)

Also, "CC(C)c1cccc(C(C)C)c1O" please.
0 (no)

Also, "O=C(N/N=C/c1ccc([N+](=O)[O-])o1)c1cc([N+](=O)[O-])cc([N+](=O)[O-])c1O" please.
0 (no)

Also, "Nc1ccccc1" please.
0 (no)

Also, O=C1OC(CCN2CCCCC2)OC1(c1ccccc1)c1ccccc1 (configuration not stated) please.
0 (no)

Also, "CCCCC/C=C\C/C=C\C/C=C\C/C=C\CCCC(=O)NCC(=O)O" please.
0 (no)

Also, "COP(=S)(OC)SCN1C(=O)c2ccccc2C1=O" please.
0 (no)

Also, CN1C(=O)NC(=O)C(C)(C2=CCCCC2)C1=O (configuration not stated) please.
0 (no)

Also, "O=C(CCCN1CCC2(CC1)C(=O)NCN2c1ccccc1)c1ccc(F)cc1" please.
1 (yes)

* * *

- Test Summary: qHTS for differential inhibitors of proliferation of Plasmodium falciparum line GB4 (AID 1816);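 note: parasite growth measured after 72 h incubation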
- Condition Notes: Plasmodium falciparum GB4 proliferation inhibition; series mostly up to 28.7 µM
Inconclusive results are not listed. Activity calls are given as the source filed them. Calls come from the whole dose curve; as a rule, active = well fitted curve in the direction sought with a large enough effect; inconclusive = small, poorly fitted or top-dose-only effect, or another doubt; inactive = no such curve, though single readings can be large or run the other way.
Respond using exactly one of the listed classes: active, inactive

Examples from the recorded data:
>>> df
                                   compound     class
0  CC(NC(C)(C)C)C(=O)c1cccc(Cl)c1 (configuration not stated)    active
1  CC(C)(C)NCC(O)c1ccccc1Cl (configuration not stated)    active
2                            NCCc1ccc(O)cc1  inactive

What outcome does the record of this test show for O=P1(N(CCCl)CCCl)NCCCO1 (configuration not stated) ?
inactive

Also, "CC(=O)N1CCN(c2ccc(OC[C@H]3CO[C@](Cn4ccnc4)(c4ccc(Cl)cc4Cl)O3)cc2)CC1" please.
active

Also, "CC(C)c1cccc(C(C)C)c1O" please.
inactive

Also, "CCCCC/C=C\C/C=C\C/C=C\C/C=C\CCCC(=O)NCC(=O)O" please.
active

* * *

- System: CP265
- Test Summary: qHTS profiling for inhibitors of Plasmodium falciparum proliferation (AID 504749); note: nearly all actives have a fitted effect of over 60% in size
- Condition Notes: P. falciparum in erythrocytes, SYBR Green DNA, 72 h; series mostly up to 28.7 µM
Results filed as inconclusive are left out. Active and inactive are the calls of the source. The call rests on the fitted dose curve; in most records, active means well fitted inhibition curve with a large enough effect; inconclusive means small, poorly fitted or top-dose-only effect; inactive means flat fitted curve, though single readings scatter.
Respond using exactly one of the listed classes: 1 for active, -1 for inactive

                              molecule  class
0  O=C(Nc1ccc(Br)cc1)c1cc(Br)cc(Br)c1O     -1

What outcome does the record of this test show for "O=C1c2ccccc2C(=O)c2ccccc21" ?
1

Also, "Nc1ccccc1C(=O)O" please.
-1

Also, "Cc1ncsc1CCCl" please.
-1

Also, "NNc1ccccc1" please.
-1

Also, "COP(=S)(OC)SCN1C(=O)c2ccccc2C1=O" please.
-1

Also, CC(C)=CC1C(C(=O)OCN2C(=O)C3=C(CCCC3)C2=O)C1(C)C (stereo not drawn) please.
-1

Also, "CCCCCCC(=O)CCCCCC/C=C/C[C@@H](O)[C@H](O)[C@@](N)(CO)C(=O)O" please.
-1

Also, "Clc1ccc2c(c1)C(c1ccccc1)=NCc1nncn1-2" please.
-1

Also, "CCCC(C)(COC(N)=O)COC(N)=O" please.
-1

Also, COC(=O)C(c1ccccc1)C1CCCCN1 (stereo not drawn) please.
-1

Also, CN1C(=O)NC(=O)C(C)(C2=CCCCC2)C1=O (stereo not drawn) please.
-1

Also, CN1C(=O)C(O)N=C(c2ccccc2)c2cc(Cl)ccc21 (stereo not drawn) please.
-1
